Target or system Somatostatin receptor type 5 (Homo sapiens, UniProt P35346); recorded quantity Ki.
Answer format: numeric, nM implied, no suffix.

Previously resolved entries follow.
[[record]]
smiles_representation = "COc1cc(CN2CCC(NC(=O)c3cncc(C)c3)CC2)c(OC)c2ccccc12"
experimental_result = 40

[[record]]
smiles_representation = "CCOc1cc(CN2CCC(NC(=O)c3cncc(C)c3)CC2)ccc1Cl"
experimental_result = 20

[[record]]
smiles_representation = "COc1cc(CN2CCC3(CC2)OC(=O)c2ccccc23)c(OC)c2ccccc12"
experimental_result = 1100


In the following, a different molecule is considered.
Check the records and state Ki for COc1cc(CN2CCC(NC(=O)c3ccccc3)CC2)c(OC)c2ccccc12
120

---

Target: UniProtKB Q12809
Sequence (Q12809 whole entry): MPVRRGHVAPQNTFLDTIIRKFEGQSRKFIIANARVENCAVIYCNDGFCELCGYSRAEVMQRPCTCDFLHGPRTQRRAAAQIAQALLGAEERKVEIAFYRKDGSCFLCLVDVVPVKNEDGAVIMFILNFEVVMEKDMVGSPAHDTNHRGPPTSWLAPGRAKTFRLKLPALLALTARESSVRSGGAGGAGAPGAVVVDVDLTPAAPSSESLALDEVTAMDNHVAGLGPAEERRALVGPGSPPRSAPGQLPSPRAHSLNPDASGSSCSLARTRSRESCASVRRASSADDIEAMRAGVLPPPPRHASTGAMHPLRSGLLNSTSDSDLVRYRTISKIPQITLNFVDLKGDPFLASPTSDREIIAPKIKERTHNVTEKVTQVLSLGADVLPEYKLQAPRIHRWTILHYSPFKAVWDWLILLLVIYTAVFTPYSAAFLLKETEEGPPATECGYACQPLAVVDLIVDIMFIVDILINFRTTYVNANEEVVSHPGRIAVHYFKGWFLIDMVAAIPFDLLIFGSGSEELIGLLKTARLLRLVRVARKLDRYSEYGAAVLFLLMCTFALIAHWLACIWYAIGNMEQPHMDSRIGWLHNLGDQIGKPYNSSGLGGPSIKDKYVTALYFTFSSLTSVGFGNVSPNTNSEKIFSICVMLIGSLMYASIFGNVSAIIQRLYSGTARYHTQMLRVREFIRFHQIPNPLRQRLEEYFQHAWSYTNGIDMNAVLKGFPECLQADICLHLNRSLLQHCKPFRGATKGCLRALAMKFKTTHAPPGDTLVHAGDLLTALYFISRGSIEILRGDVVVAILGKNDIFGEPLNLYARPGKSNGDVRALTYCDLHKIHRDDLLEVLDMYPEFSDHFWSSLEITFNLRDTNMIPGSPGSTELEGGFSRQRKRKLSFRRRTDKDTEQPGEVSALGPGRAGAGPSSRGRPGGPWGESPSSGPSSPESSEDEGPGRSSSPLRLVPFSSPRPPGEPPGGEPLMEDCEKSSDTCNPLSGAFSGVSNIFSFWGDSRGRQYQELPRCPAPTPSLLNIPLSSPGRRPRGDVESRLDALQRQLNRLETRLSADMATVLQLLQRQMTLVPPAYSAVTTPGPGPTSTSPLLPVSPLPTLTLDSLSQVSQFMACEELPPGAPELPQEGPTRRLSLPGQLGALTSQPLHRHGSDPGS
Test: Binding affinity to human ERG channel
readout.kind: IC50 (nM)
Answer format: numeric, nM implied, no suffix.

Check the records and state IC50 for CCOc1cc(CN2CCC(NC(=O)c3cccc(S(C)(=O)=O)c3)CC2)ccc1Cl
1300

---

Molecular target: Somatostatin receptor type 2 (Homo sapiens, UniProt P30874)
Sequence (P30874 whole entry): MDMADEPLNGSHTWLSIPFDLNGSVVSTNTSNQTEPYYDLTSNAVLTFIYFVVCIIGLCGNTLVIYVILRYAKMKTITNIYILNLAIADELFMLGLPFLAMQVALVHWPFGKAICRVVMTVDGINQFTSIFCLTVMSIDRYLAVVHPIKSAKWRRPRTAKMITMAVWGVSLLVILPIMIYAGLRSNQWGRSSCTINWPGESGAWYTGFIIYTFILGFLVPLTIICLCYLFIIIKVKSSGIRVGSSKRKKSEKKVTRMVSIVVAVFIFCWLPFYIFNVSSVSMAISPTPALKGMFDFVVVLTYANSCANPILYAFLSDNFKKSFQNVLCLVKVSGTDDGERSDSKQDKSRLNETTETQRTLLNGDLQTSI
readout.kind: Ki

Check the records and state Ki for CCOc1cc(CN2CCC(NC(=O)c3cncc(C)c3)CC2)ccc1Cl
> 10 µM

Source listed as ChEMBL document CHEMBL1138334.
